For each entry below, report its IC50 value.
MEASURED_TARGET: BRM (Homo sapiens)
Sequence (P51531 whole entry): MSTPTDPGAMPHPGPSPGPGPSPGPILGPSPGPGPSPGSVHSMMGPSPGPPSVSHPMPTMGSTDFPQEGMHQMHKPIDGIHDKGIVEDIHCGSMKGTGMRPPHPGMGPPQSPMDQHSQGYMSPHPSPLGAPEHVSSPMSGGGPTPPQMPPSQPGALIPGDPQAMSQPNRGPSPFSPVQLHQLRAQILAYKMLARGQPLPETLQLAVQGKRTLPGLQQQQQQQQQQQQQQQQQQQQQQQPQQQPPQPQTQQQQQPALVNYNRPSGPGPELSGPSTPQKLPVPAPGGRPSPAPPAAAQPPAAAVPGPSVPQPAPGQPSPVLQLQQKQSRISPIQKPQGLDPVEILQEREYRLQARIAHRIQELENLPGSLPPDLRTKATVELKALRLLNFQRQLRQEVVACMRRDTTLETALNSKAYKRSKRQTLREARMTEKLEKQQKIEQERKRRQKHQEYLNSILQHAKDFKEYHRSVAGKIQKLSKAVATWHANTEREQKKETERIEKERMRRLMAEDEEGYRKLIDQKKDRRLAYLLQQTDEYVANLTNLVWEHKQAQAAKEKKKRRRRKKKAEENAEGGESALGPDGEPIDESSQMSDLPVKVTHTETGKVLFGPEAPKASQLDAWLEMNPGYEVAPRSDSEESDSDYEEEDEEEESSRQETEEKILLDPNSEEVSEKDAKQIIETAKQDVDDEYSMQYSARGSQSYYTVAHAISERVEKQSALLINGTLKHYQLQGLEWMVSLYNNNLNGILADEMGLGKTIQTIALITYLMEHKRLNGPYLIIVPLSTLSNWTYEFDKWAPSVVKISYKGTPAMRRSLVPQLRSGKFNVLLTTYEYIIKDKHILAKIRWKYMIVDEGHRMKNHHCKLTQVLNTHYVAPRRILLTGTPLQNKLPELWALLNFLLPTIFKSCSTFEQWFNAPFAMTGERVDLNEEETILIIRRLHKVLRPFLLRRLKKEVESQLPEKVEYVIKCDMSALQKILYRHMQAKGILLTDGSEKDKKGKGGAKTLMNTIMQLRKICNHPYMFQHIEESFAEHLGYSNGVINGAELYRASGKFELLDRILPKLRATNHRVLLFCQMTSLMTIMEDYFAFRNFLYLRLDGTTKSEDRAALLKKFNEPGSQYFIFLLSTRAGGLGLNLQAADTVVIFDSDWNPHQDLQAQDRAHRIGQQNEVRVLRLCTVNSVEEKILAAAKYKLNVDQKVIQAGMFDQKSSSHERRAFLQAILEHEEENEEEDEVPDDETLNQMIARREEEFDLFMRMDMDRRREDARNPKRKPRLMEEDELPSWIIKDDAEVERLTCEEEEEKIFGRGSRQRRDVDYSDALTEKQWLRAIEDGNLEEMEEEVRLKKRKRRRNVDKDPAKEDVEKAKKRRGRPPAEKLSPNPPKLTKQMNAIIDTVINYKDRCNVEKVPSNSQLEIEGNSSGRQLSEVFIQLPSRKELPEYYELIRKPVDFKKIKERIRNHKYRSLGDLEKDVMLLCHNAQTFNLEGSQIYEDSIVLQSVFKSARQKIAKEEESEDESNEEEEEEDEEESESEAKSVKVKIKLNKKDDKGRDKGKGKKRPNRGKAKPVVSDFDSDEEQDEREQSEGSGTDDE
RUN_DESCRIPTION: ATPase catalytic activity assay (ADP-Glo), BRM
MEASUREMENT_SETUP: BRM ATPase: IC50 (uM), 30 nM BRM, 400 μM ATP

The cases that follow already have their IC50 on record.
MOLECULE: C[C@@]1(C#N)COCc2ccc(C(=O)NCc3cc4nc(N5CCCC5)ccc4cn3)cc21
MEASURED_TARGET: BRM (Homo sapiens)
IC50: 0.1 to 0.5 µM

MOLECULE: COc1nn(C2CC2(F)F)cc1-c1ccc2cnc(CNC(=O)c3ccc4c(c3)[C@](C)(C#N)COC4)cc2n1 (stereo partly drawn)
MEASURED_TARGET: BRM (Homo sapiens)
IC50: 0.1 to 0.5 µM

MOLECULE: C[C@@]1(C#N)COCc2ccc(C(=O)NCc3cc(N4CCN(c5ccccc5)CC4)ccn3)cc21
MEASURED_TARGET: BRM (Homo sapiens)
IC50: 0.1 to 0.5 µM

MOLECULE: C[C@@]1(C#N)COCc2ccc(C(=O)NCc3cc(N4CCC(c5ccccc5)C4)ccn3)cc21 (stereo partly drawn)
MEASURED_TARGET: BRM (Homo sapiens)
IC50: 0.1 to 0.5 µM

Batch request: IC50 per item, same order as input.
1. C[C@@]1(F)COCc2c(F)cc(C(=O)NCc3cc4cc(-c5cncc(N6CCC6)n5)ccc4cn3)cc21
2. COC1CN(c2nccc(-c3ccc4cnc(CNC(=O)c5ccc6c(c5)[C@](C)(C#N)COC6)cc4n3)n2)C1
3. C[C@@]1(C#N)COCc2ccc(C(=O)NCc3cc4nc(-c5cccc(C(F)F)n5)ccc4cn3)cc21
4. CN1CC(c2cccc(-c3ccc4cnc(CNC(=O)c5ccc6c(c5)[C@](C)(C#N)COC6)cc4n3)c2)C1
5. COc1cc(C)ccc1-c1ccc2cnc(CNC(=O)c3ccc4c(c3)[C@](C)(C#N)COC4)cc2n1
6. C[C@@]1(O)COCc2ccc(C(=O)NCc3cc4nc(-c5ccccc5)sc4cn3)cc21
7. C[C@@]1(F)COCc2ccc(C(=O)NCc3cc4nc(-c5cccc(C6(O)CC6)n5)ccc4cn3)cc21
8. C[C@@]1(C#N)COCc2ccc(C(=O)NCc3cc4nc(-c5cnn(-c6ccncc6)c5)ccc4cn3)cc21

1: < 0.1 µM; 2: < 0.1 µM; 3: < 0.1 µM; 4: 0.1 to 0.5 µM; 5: < 0.1 µM; 6: > 1 µM; 7: < 0.1 µM; 8: 0.1 to 0.5 µM

Batch request: IC50 per item, same order as input.
1. COc1cc(F)cc(-c2ccc3cnc(CNC(=O)c4ccc5c(c4)[C@](C)(C#N)COC5)cc3n2)c1
2. Cc1c(-c2ccc3cnc(CNC(=O)c4ccc5c(c4)[C@](C)(C#N)COC5)cc3n2)cnn1C1COC1
3. C[C@@]1(C#N)COCc2ccc(C(=O)NCc3cc([C@H]4C[C@H](c5cccc(C6CC6)n5)C4)ccn3)cc21
4. C[C@@]1(C#N)COCc2ccc(C(=O)NCc3cc(/C(F)=C/c4ccccc4)ccn3)cc21
5. COc1cncc(-c2ccc3cnc(CNC(=O)c4ccc5c(c4)[C@](C)(C#N)COC5)cc3n2)c1
6. Cc1cc2c(-c3ccc4cnc(CNC(=O)c5ccc6c(c5)[C@](C)(C#N)COC6)cc4n3)cccc2n1C
7. C[C@@]1(C#N)COCc2ccc(C(=O)NCc3cc4c(cn3)CCN(c3cncc(C5CC5)n3)C4)cc21

< 0.1 µM
0.1 to 0.5 µM
0.1 to 0.5 µM
0.1 to 0.5 µM
0.1 to 0.5 µM
< 0.1 µM
< 0.1 µM

Batch request: IC50 per item, same order as input.
1. C[C@@]1(C#N)COCc2c(F)cc(C(=O)NCc3cc4nc(-c5cncc(N6CCC6)n5)ccc4cn3)cc21
2. C[C@@]1(C#N)COCc2ccc(C(=O)NCc3cc4nc(-c5cccnc5)ccc4cn3)cc21

1: < 0.1 µM; 2: 0.5 to 1 µM
